Just for reference, patent US11034692B1 is where these values come from.

For each entry below, report its Ki value.
target: UniProtKB Q92918; assay: HPK1 Lantha Binding Assay ("Lanth"); conditions: Table B1-1, read-out: HPK1 Ki (μM) (Lanth)
Sequence (Q92918 whole entry, looked up): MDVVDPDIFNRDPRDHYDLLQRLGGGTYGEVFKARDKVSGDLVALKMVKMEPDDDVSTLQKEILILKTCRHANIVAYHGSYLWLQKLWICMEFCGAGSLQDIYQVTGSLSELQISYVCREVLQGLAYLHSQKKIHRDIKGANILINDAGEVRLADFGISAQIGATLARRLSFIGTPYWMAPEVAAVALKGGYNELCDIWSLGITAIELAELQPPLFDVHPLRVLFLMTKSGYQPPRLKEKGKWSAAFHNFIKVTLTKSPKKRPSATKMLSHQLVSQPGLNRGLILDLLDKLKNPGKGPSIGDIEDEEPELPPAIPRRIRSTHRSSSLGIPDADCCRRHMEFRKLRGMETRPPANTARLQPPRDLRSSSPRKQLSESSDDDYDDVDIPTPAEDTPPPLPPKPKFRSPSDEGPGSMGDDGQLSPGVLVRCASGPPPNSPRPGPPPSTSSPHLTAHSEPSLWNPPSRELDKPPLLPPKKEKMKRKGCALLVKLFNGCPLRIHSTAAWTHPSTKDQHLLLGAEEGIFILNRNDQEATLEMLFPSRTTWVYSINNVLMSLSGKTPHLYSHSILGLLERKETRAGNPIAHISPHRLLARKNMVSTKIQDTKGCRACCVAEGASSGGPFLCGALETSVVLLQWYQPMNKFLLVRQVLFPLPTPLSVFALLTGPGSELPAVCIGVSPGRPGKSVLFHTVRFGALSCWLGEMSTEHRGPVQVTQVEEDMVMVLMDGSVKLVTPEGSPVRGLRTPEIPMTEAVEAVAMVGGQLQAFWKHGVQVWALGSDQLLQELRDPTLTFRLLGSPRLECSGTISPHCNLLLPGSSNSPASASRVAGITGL

As a guide, the following entries are already answered.
[
  {
    "COMPOUND": "Cc1cc2[nH]c(=O)oc2cc1-c1cc2cc(NC(=O)[C@@H]3C[C@H]3c3cn[nH]c3)ncc2c(N)n1 (racemic) [Compound 144]",
    "ENDPOINT_VALUE": "0.0011 µM"
  },
  {
    "COMPOUND": "N#CCc1ccncc1-c1cc2cc(NC(=O)[C@H]3C[C@@H]3C#N)ncc2c(N)n1 (racemic) [Compound 227]",
    "ENDPOINT_VALUE": "0.0387 µM"
  },
  {
    "COMPOUND": "Cc1cc(N2CCC(N)C2)ncc1-c1cc2cc(NC(=O)C3CC3F)ncc2c(N)n1 (racemic) [Compound 179]",
    "ENDPOINT_VALUE": "0.0029 µM"
  }
]

Each compound below has a reported value. Please supply its Ki.
1. Cc1ccncc1-c1cc2cc(NC3CCNC3)ncc2c(N)n1 (racemic) [Compound 120]
2. COc1ccc(Cn2cncc2[C@@H]2C[C@H]2C(=O)Nc2cc3cc(-c4cnccc4C)nc(N)c3cn2)cc1 (racemic) [Compound 145]
3. Cc1cc(-c2ccc[nH]c2=O)ncc1-c1cc2cc(NC(=O)[C@H]3C[C@H]3F)ncc2c(N)n1 (racemic) [Compound 167]
4. N#C[C@@H]1C[C@@H]1C(=O)Nc1cc2cc(-c3cncc4[nH]ccc34)nc(N)c2cn1 (racemic) [Compound 21]
5. Cc1cc(C(N)=O)ccc1-c1cc2cc(NC(=O)[C@@H]3C[C@@H]3F)ncc2c(N)n1 (racemic) [Compound 48]
6. Cc1ccncc1-c1cc2cc(NC(=O)[C@@H]3C[C@H]3CC#N)ncc2c(N)n1 (racemic) [Compound 212]
7. Cc1cc2c(cc1-c1cc3cc(NC(=O)[C@H]4C[C@@H]4C#N)ncc3c(N)n1)oc(=O)n2C (racemic) [Compound 142]
8. Cc1cc(C(=O)O)ncc1-c1cc2cc(NC(=O)[C@H]3C[C@@H]3c3cnn(C)c3)ncc2c(N)n1 (racemic) [Compound 342]

1. 2.4 µM
2. 0.002 µM
3. 0.0094 µM
4. 0.00276 µM
5. 0.0103 µM
6. 0.000685 µM
7. 0.0014 µM
8. 0.00143 µM

List the reported Ki of each compound below.
1. COCc1ccncc1-c1cc2cc(NC(=O)[C@H]3C[C@@H]3C#N)ncc2c(N)n1 (racemic) [Compound 228]
2. Nc1nc(-c2cnccc2C2CC2)cc2cc(NC(=O)[C@@H]3C[C@@H]3F)ncc12 (racemic) [Compound 46]
3. Cc1cc2[nH]c(=O)oc2cc1-c1cc2cc(NC(=O)C3C[C@H]3C#N)ncc2c(N)n1 (mixture of isomers) [Compound 135]

1. 0.011 µM
2. 0.00152 µM
3. 0.00025 µM
